Every entry's value here was drawn from patent US20130337478A1.

Biological target: polyclonal human IgG
Experiment: affinity chromatography; VHH coupled to NHS-Sepharose 4B FF, polyclonal human IgG 0.5 mg/ml in PBS pH 7.4, 150 cm/hr
Could you please report measured DBC (dynamic binding capacity) for the items listed next?
One number for each entry, in mg/mL.

Check out these entries, answers already filled in.
>>> observed_result("anti IgG-CH1 VHH #01 (VHH) VHH: QVQLQESGGGLVQAGGSLRLSCAVSGNTLSRYAMGWFRQTPGNEREFVAAIRWNNGATYYADSVEGRFTISRDSGKNTVYLQMNNLQPEDTAVYYCAGRFLGYASSNAYHEALYNYDYWGQGTQVTVSS")
8.74
>>> observed_result("anti IgG-CH1 VHH #19 (VHH) VHH: QVQLQESGGGLVQAGGSLRLSCAVSGNTLSRYAMGWFRQTPGNEREFVAAIRWNNGATYYADSVKGRFTISRDSGKNTVYLQMNNLQPEDTAVYYCAGRFLGYASSNAYHEALYNYDYWGQGTQVTVSS")
9.4
>>> observed_result("anti IgG-CH1 VHH #37 (VHH) VHH: QVQLQESGGGLVQAGGSLRLSCAVSGNTLSRYAMGWFRQTPGKEREFVAAIRWNNGATYYADSVKGRFTISRDSGKNTVYLQMNNLQPEDTAVYYCAGRFLGYASSNAYHEALYNYDYWGQGTQVTVSS")
9.8
>>> observed_result("anti IgG-CH1 VHH #86 (VHH) VHH: QVQLQDSGGGSVQAGGSLRLSCAVSGNTLSRYAMGWFRQAPGNEREFVAAIRWNNGNTYYADSVKGRFTISRDSAKNTVYLQMNSLQPEDTAVYFCAARFLPYASSNAYHEALYNYDYWGQGTQVTVSS")
4.98
>>> observed_result("anti IgG-CH1 VHH #87 (VHH) VHH: QVQLQESGGGLVQAGASLRLSCEVSGNTLSQYAMGWFRQVPGHKREFVAAIRWTNGNTYYADSVEGRFTISRDSAKKTVYLQMNSLQPDDTAIYYCAARFLPYASSNAYHESLYNYDYWGQGTQVTVSS")
5.64
>>> observed_result("anti IgG-CH1 VHH #88 (VHH) VHH: QVQLQESGGGSVQAGGSLRLSCAVSGNTLSRYAMGWFRQAPGNEREFVAAIRWNNGNTYYADSVEGRFTISRYSAKNLVYLQMNSLQAEDTAIYYCAARFLPYASSNAYHEALYNYDYWGQGTQVTVSS")
7.31

Give DBC (dynamic binding capacity) for each listed item.
1. anti IgG-CH1 VHH #89 (VHH) VHH: QVQLQESGGGLVQAGGSLRLSCAVSGNTLSRYAMGWFRQAPGNEREFVAAIRWNNGNTYYADSVKGRFTISRDSAKNTVYLQMNSLQPEDTAVYYCASRFLPYASSNAYHEALYNYDYWGQGTQVTVSS
2. anti IgG-CH1 VHH #10 (VHH) VHH: QVQLQESGGGLVQAGGSLRLSCAVSGNTLSRYAMGWFRQTPGKEREFVAAIRWNNGATYYADSVEGRFTISRDSGKNTVYLQMNNLQPEDTAVYYCAGRFLGYASSNAYHEALYNYDYWGQGTQVTVSS

1: 5.61; 2: 12

I need DBC (dynamic binding capacity) for every entry listed below, if you could help.
1. anti IgG-CH1 VHH #83 (VHH) VHH: QVQLQDSGGGLVQAGGSLRLSCAVSGNTLSRYAMGWFRQAPGNEREFVAAIRWNNGNTYYADSVEGRFTISRDSAKNTVYLQMNSLQPEDTAVYYCAARFLPYASSNAYHEALYNYDYWGQGTQVTVSS
2. anti IgG-CH1 VHH #82 (VHH) VHH: QVQLQESGGGLVQAGGSLRLSCAVSGNTLSRYAMGWFRQAPGNEREFVAAIRWNNGNTYYADSVKGRFTISRDSAKNTVFLQMNSLQPEDTAVYFCAARFLPYASSNAYHEALYNYDYWGQGTQVTVSS
3. anti IgG-CH1 VHH #64 (VHH) VHH: QVQLQESGGGLVQAGGSLRLSCAVSGNTLSRYAMGWFRQTPGKEREFVAAIRWNNGATYYADSVKGRFTISRDSGKNTVYLQMNNLKPEDTAVYYCAGRFLGYASSNAYHEALYNYDYWGQGTQVTVSS
4. anti IgG-CH1 VHH #85 (VHH) VHH: QVQLQESGGGLVQAGGSLRLSCAVSGNTLSRYAMGWFRQAPGNEREFVAAIRWNNGATYYADSVEGRFTISRDSGKNTVYLQMNSLQPEDTAVYYCAGRFLGYASSNAYHEALYNYDYWGQGTQVTVSS
5. anti IgG-CH1 VHH #84 (VHH) VHH: QVQLQDSGGGLVQAGGSLRLSCAVSGNTLSRYAMGWFRQAPGNEREFVAAIRWNNGNTYYADSVKGRFTISRDSAKNTVYLQMNSLQPEDTAVYYCAARFLPYASSNAYHEALYNYDYWGQGTQVTVSS
6. anti IgG-CH1 VHH #73 (VHH) VHH: QVQLQESGGGLVQAGGSLRLSCAVSGNTLSRYAMGWFRQTPGNEREFVAAIRWNNGATYYADSVKGRFTISRDSGRNTVYLQMNNLKPEDTAVYYCAGRFLGYASSNAYHEALYNYDYWGQGTQVTVSS
7. anti IgG-CH1 VHH #28 (VHH) VHH: QVQLQESGGGLVQAGGSLRLSCAVSGNTLSRYAMGWFRQTPGNEREFVAAIRWNNGATYYADSVEGRFTISRDSGKNTVYLQMNNLKPEDTAVYYCAGRFLGYASSNAYHEALYNYDYWGQGTQVTVSS
8. anti IgG-CH1 VHH #46 (VHH) VHH: QVQLQESGGGLVQAGGSLRLSCAVSGNTLSRYAMGWFRQTPGKEREFVAAIRWNNGATYYADSVEGRFTISRDSGKNTVYLQMNNLKPEDTAVYYCAGRFLGYASSNAYHEALYNYDYWGQGTQVTVSS

1. 8.46
2. 6.69
3. 10.2
4. 11.9
5. 8.27
6. 11.7
7. 12.5
8. 11.2
